Experiment: Drug uptake in rat liver at 10 mg/kg, po after 4 hrs
Format: ADME, organism-based
Design: dose 10 mg/kg, route oral
Settings: read-out: Drug uptake
Property Label: concentration at 4 h (ng/g)
I only need the number, in ng/g, no unit after it.

Which value of concentration at 4 h has been reported for "Cc1nc(NCC(F)(F)F)nc(N[C@@H]2C[C@H](CO)[C@@H](O)[C@H]2O)c1-c1nc2ccccc2s1" in the records?
8420

====

Assay: Cytotoxicity against human hepatoma cells after 3 days by MTS assay
Type: cell-based
Conditions: human hepatoma cells
Property Label: CC50 at 72 h (µM)
Your answer is read as µM, so omit the unit and give the number.

Some solved cases for reference:
Cc1nc(NCc2cccnc2)nc(N[C@@H]2C[C@H](CO)[C@@H](O)[C@H]2O)c1-c1nc2ccccc2s1 = 11
Cc1nc(NCc2ccsc2)nc(N[C@@H]2C[C@H](CO)[C@@H](O)[C@H]2O)c1-c1nc2ccccc2s1 = 4

CC50 at 72 h lookup needed for "Cc1nc(NCCC(F)(F)F)nc(N[C@@H]2C[C@H](CO)[C@@H](O)[C@H]2O)c1-c1nc2ccccc2s1" , thanks.
9

"Cc1nc(N(C)C)nc(N[C@@H]2C[C@H](CO)[C@@H](O)[C@H]2O)c1-c1nc2ccccc2s1" , same question.
16

One more molecule: "Nc1nc(Cl)c(-c2nc3ccccc3o2)c(N[C@@H]2C[C@H](CO)[C@@H](O)[C@H]2O)n1"
15

// repeat for "Nc1nc(Cl)c(-c2nc3ccccc3s2)c(N[C@@H]2C[C@H](CO)[C@@H](O)[C@H]2O)n1" and report
18

Let us now turn to "Cc1nc(Nc2nccs2)nc(N[C@@H]2C[C@H](CO)[C@@H](O)[C@H]2O)c1-c1nc2ccccc2s1"
13
